Origin of the recorded values: patent EP3020822A1

molecular target: T1, human TLR3 extracellular domain (ECD) (human, UniProt O15455 24-703); test: ELISA, huTLR3 ECD coated, mAb titrated, anti-human IgG-peroxidase
T1 construct: amino acids 1-703 of human TLR3; the structural model covers residues 30-687; also called huTLR3 ECD; TLR3 ECD
Param label: returns Met when EC50 < 0.02 µg/mL, returns Not met otherwise, including exact equality.

Ask: Strictly below 0.02 µg/mL in EC50? mAb 7 (antibody, human IgG4 S228P, V domains shown, human IgG4 with S229P; also called candidate 7; Fab 7) VH: QVELQQSGPGLVKPSQTLSLTCAISGDSVSTRSAAWGWIRQSPGRGLEWLGRIYMRSKWYNDYAVSVKSRITINPDTSKNQFSLQLNSVTPEDTAVYYCARHTYPYLSFDVWGQGTLVTVSS VL: DIELTQPPSVSVAPGQTARISCSGDALGGYFVSWYQQKPGQAPVLVIYDDDNRPSGIPERFSGSNSGNTATLTISGTQAEDEADYYCSSYDSDSLTVFGGGTKLTVL
Reply: Met

Ask: Subsequent entry: mAb 11 (antibody, human IgG4 S228P, V domains shown, human IgG4 with S229P; also called candidate 11; Fab 11) VH: QVELQQSGPGLVKPSQTLSLTCAISGDSVSSNSAAWGWIRQSPGRGLEWLGIIQKRSKWYNNYAVSVKSRITINPDTSKNQFSLQLNSVTPEDTAVYYCARYSYPFYSIDYWGQGTLVTVSS VL: DIELTQPPSVSVAPGQTARISCSGDNIGSYYVHWYQQKPGQAPVLVIYEDSERPSGIPERFSGSNSGNTATLTISGTQAEDEADYYCSSYDEPNFNVFGGGTKLTVL
Reply: Not met

Ask: Subsequent entry: mAb 3 (antibody, human IgG4 S228P, V domains shown, human IgG4 with S229P; also called candidate 3; Fab 3) VH: QVELQQSGPGLVKPSQTLSLTCAISGDSVSTRSAAWGWIRQSPGRGLEWLGRIHRRSKWYNDYAVSVKSRITINPDTSKNQFSLQLNSVTPEDTAVYYCARHTYPYLSFDVWGQGTLVTVSS VL: DIELTQPPSVSVAPGQTARISCSGDALGGYFVSWYQQKPGQAPVLVIYDDDNRPSGIPERFSGSNSGNTATLTISGTQAEDEADYYCASYDGDEFTVFGGGTKLTVL
Reply: Not met

Ask: Subsequent entry: mAb 16 (antibody, human IgG4 S228P, V domains shown, human IgG4 with S229P; also called candidate 16; Fab 16) VH: QVELVQSGAEVKKPGESLKISCKGSGYSFNNYWIGWVRQMPGKGLEWMGIIDPGDSYTNYAPSFQGQVTISADKSISTAYLQWSSLKASDTAMYYCARNIYEFDYWGQGTLVTVSS VL: DIQMTQSPSSLSASVGDRVTITCRASQGISSWLNWYQQKPGKAPKLLIYGASNLQSGVPSRFSGSGSGTDFTLTISSLQPEDFAVYYCQQYDDFSITFGQGTKVEIK
Reply: Not met
